Assay: chemical genetic growth profiling, strain panel (AID 1159580);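 further: tested at 20 µM; growth read once vehicle control cultures reached saturation at 30 °C; 1 = growth at the plate median or of vehicle wells; lower values mean less growth of the strain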
Conditions: S. cerevisiae deletion strains, growth OD, locus YPR167C, strain met16, stronger effect = lower value
Out of some 5,500 compounds screened, about 2,000 (36%) were called active. Not shown: some 18% with an inconclusive outcome. Some of the results follow.
Attribute: normalized growth
Quantity Kind: normalized growth

>>> reported_measurement("CN(C)C(=O)Oc1ccc[n+](C)c1")
1.01
>>> reported_measurement("O=c1cccc2n1CC1CC2CN2CCCC[C@@H]12 (stereo not given in full)")
0.973
>>> reported_measurement("COP(=S)(OC)Oc1ccc([N+](=O)[O-])cc1")
0.984
>>> reported_measurement("COc1ccc(-c2cc(=O)c3c(OC)cc(OC)cc3o2)cc1")
1
>>> reported_measurement("COc1ccc(CCC(=O)c2c(O)cc(O[C@@H]3O[C@H](CO)C(O)[C@H](O)C3O[C@@H]3O[C@@H](C)[C@H](O)[C@@H](O)[C@H]3O)cc2O)cc1O (stereo not given in full)")
0.97
